- PROTOCOL: Cell viability of B16 melanoma 4A5 cells
- Type: cell-based, murine
- CONDITION CONTEXT: mouse, 10 µM, B16 4A5 cells
QUANTITY NAME: viability at 72 h, 10 µM (%)
Respond numerically; units are % and should not be typed.

// solved cases for viability at 72 h, 10 µM follow
CCCCCCOC1=C(OCC(O)CO)[C@@H]([C@@H](O)CO)OC1=O (stereo partly drawn) [compound 6, 3-O-(2,3-dihydroxypropyl)-2-O-hexyl-AsA]
96.1
CCCCCCCCCOC1=C(OCC(O)CO)[C@@H]([C@@H](O)CO)OC1=O (stereo partly drawn) [compound 9, 3-O-(2,3-dihydroxypropyl)-2-O-nonyl-AsA]
88.9

Now examine the next entry.
IN: Which viability at 72 h, 10 µM is reported for this molecule? CCCCCCCCOC1=C(OCC(O)CO)[C@@H]([C@@H](O)CO)OC1=O (stereo partly drawn) [compound 8, 3-O-(2,3-dihydroxypropyl)-2-O-octyl-AsA]
OUT: 103

###

- Test system: tyrosinase from mushroom
- PROTOCOL: Mushroom tyrosinase activity
- Format: biochemical
- CONDITION CONTEXT: Substrate: L-DOPA, 30 µM
- Procedure: Tyrosinase activities using L-tyrosine or L-DOPA as a substrate were determined according to the protocols described previously. Briefly, samples, L-tyrosine (2.5 mM, or L-DOPA, 3.0 mM), mushroom tyrosinase (46 units/mL), and phosphate buffer were mixed in a 96-well plate and incubated at 25 °C. (L-tyrosine; 30 min, L-DOPA; 5 min). The absorbance was then measured at 492 nm.
QUANTITY NAME: Inhibition (%) of mushroom tyrosinase
Respond numerically; units are % and should not be typed.

IN: Which Inhibition (%) of mushroom tyrosinase is reported for this molecule? CCCCCCCCCCCCCCOC1=C(OCC(O)CO)C(=O)O[C@@H]1[C@@H](O)CO (some centres unmarked)
OUT: −8.1

IN: Please give the result for CCCCCCCOC1=C(OCC(O)CO)C(=O)O[C@@H]1[C@@H](O)CO (some centres unmarked) [compound 21, 2-O-(2,3-dihydroxypropyl)-3-O-heptyl-AsA] too.
OUT: −10.0

IN: Please give the result for CCCCCCCCCCOC1=C(OCC(O)CO)C(=O)O[C@@H]1[C@@H](O)CO (some centres unmarked) [compound 24, 3-O-decyl-2-O-(2,3-dihydroxypropyl)-AsA] too.
OUT: −5.3

###

Entries and their viability at 72 h, 1000 µM values follow.
- PROTOCOL: Cell viability of B16 melanoma 4A5 cells
- Type: cell-based, murine
- CONDITION CONTEXT: mouse, 1000 µM, B16 4A5 cells
Respond numerically; units are % and should not be typed.

CCOC1=C(OCC(O)CO)C(=O)O[C@@H]1[C@@H](O)CO (stereo partly drawn) [compound 16, 2-O-(2,3-dihydroxypropyl)-3-O-ethyl-AsA]
95.9
O=C1O[C@H]([C@@H](O)CO)C(O)=C1OCC(O)CO (stereo partly drawn) [compound 15, 2-O-(2,3-dihydroxypropyl)-AsA]
102
CCCCCOC1=C(OCC(O)CO)C(=O)O[C@@H]1[C@@H](O)CO (stereo partly drawn) [compound 19, 2-O-(2,3-dihydroxypropyl)-3-O-pentyl-AsA]
54.7
CCCCOC1=C(OCC(O)CO)[C@@H]([C@@H](O)CO)OC1=O (stereo partly drawn) [compound 4, 2-O-butyl-3-O-(2,3-dihydroxypropyl)-AsA]
93.9
O=C1O[C@H]([C@@H](O)CO)C(O)=C1OP(=O)(O)O [Magnesium L-ascorbyl-2-phosphate, reference compound]
126

Now examine the next entry.
IN: Which viability at 72 h, 1000 µM is reported for this compound? `O=C1O[C@H]([C@@H](O)CO)C(O)=C1O`
OUT: 104

###

Entries and their Inhibition (%) of mushroom tyrosinase values follow.
- Tested on: tyrosinase from mushroom
- PROTOCOL: Mushroom tyrosinase activity
- Type: biochemical
- CONDITION CONTEXT: Substrate: L-DOPA, 100 µM
Respond numerically; units are % and should not be typed.

// solved cases for Inhibition (%) of mushroom tyrosinase follow
CCCCCCCOC1=C(OCC(O)CO)[C@@H]([C@@H](O)CO)OC1=O (some centres unmarked) [compound 7, 3-O-(2,3-dihydroxypropyl)-2-O-heptyl-AsA]
1.1
CCCCCCCCCOC1=C(OCC(O)CO)C(=O)O[C@@H]1[C@@H](O)CO (some centres unmarked) [compound 23, 2-O-(2,3-dihydroxypropyl)-3-O-nonyl-AsA]
−1.5
CCCCCCCCCOC1=C(OCC(O)CO)[C@@H]([C@@H](O)CO)OC1=O (some centres unmarked) [compound 9, 3-O-(2,3-dihydroxypropyl)-2-O-nonyl-AsA]
0.9

IN: Which Inhibition (%) of mushroom tyrosinase is reported for this molecule? CCCCCCCOC1=C(OCC(O)CO)C(=O)O[C@@H]1[C@@H](O)CO (some centres unmarked) [compound 21, 2-O-(2,3-dihydroxypropyl)-3-O-heptyl-AsA]
OUT: −11.3

IN: Please give the result for CCCCCCCCOC1=C(OCC(O)CO)[C@@H]([C@@H](O)CO)OC1=O (some centres unmarked) [compound 8, 3-O-(2,3-dihydroxypropyl)-2-O-octyl-AsA] too.
OUT: 2.3

IN: Please give the result for CCCCCCOC1=C(OCC(O)CO)[C@@H]([C@@H](O)CO)OC1=O (some centres unmarked) [compound 6, 3-O-(2,3-dihydroxypropyl)-2-O-hexyl-AsA] too.
OUT: −1.0

IN: Please give the result for CCCCCCOC1=C(OCC(O)CO)C(=O)O[C@@H]1[C@@H](O)CO (some centres unmarked) [compound 20, 2-O-(2,3-dihydroxypropyl)-3-O-hexyl-AsA] too.
OUT: −2.4

IN: Please give the result for CCCCCCCCOC1=C(OCC(O)CO)C(=O)O[C@@H]1[C@@H](O)CO (some centres unmarked) [compound 22, 2-O-(2,3-dihydroxypropyl)-3-O-octyl-AsA] too.
OUT: −4.5

###

Entries and their Inhibition (%) of mushroom tyrosinase values follow.
- System: tyrosinase from mushroom
- PROTOCOL: Mushroom tyrosinase activity
- Assay type: biochemical
- CONDITION CONTEXT: Substrate: L-Tyrosine, 30 µM
- Experimental: Tyrosinase activities using L-tyrosine or L-DOPA as a substrate were determined according to the protocols described previously. Briefly, samples, L-tyrosine (2.5 mM, or L-DOPA, 3.0 mM), mushroom tyrosinase (46 units/mL), and phosphate buffer were mixed in a 96-well plate and incubated at 25 °C. (L-tyrosine; 30 min, L-DOPA; 5 min). The absorbance was then measured at 492 nm.
Respond numerically; units are % and should not be typed.

// solved cases for Inhibition (%) of mushroom tyrosinase follow
CCCCCCCOC1=C(OCC(O)CO)[C@@H]([C@@H](O)CO)OC1=O (stereo partly shown) [compound 7, 3-O-(2,3-dihydroxypropyl)-2-O-heptyl-AsA]
−1.7
CCCCCCCCCCOC1=C(OCC(O)CO)[C@@H]([C@@H](O)CO)OC1=O (stereo partly shown) [compound 10, 2-O-decyl-3-O-(2,3-dihydroxypropyl)-AsA]
0.4

IN: Which Inhibition (%) of mushroom tyrosinase is reported for this compound? CCCCCCCCCCCCCOC1=C(OCC(O)CO)C(=O)O[C@@H]1[C@@H](O)CO (stereo partly shown)
OUT: −5.4

IN: Please give the result for CCCCCCCCOC1=C(OCC(O)CO)C(=O)O[C@@H]1[C@@H](O)CO (stereo partly shown) [compound 22, 2-O-(2,3-dihydroxypropyl)-3-O-octyl-AsA] too.
OUT: −11.5

IN: Please give the result for CCCCCCCCCCCOC1=C(OCC(O)CO)[C@@H]([C@@H](O)CO)OC1=O (stereo partly shown) too.
OUT: 1.0

IN: Please give the result for CCCCCCCCCCCCOC1=C(OCC(O)CO)[C@@H]([C@@H](O)CO)OC1=O (stereo partly shown) too.
OUT: −7.1

IN: Please give the result for CCCCCCOC1=C(OCC(O)CO)C(=O)O[C@@H]1[C@@H](O)CO (stereo partly shown) [compound 20, 2-O-(2,3-dihydroxypropyl)-3-O-hexyl-AsA] too.
OUT: 1.4

###

- PROTOCOL: Cell viability of B16 melanoma 4A5 cells
- Assay type: cell-based, murine
- CONDITION CONTEXT: mouse, 30 µM, B16 4A5 cells
- Description: The effects on theophylline-stimulated melanogenesis and viability of B16 melanoma 4A5 cells were examined according to previously described protocols. Briefly, murine B16 melanoma 4A5 cells were seeded into 48-well plates in DMEM. After 24 h of culture, a test compound and theophylline (1 mM) were added and incubated for 72 h. The melanin content and cell viability were then measured. IC50 values were determined graphically.
Entries and their viability at 72 h, 30 µM values follow.
Respond numerically; units are % and should not be typed.

IN: Which viability at 72 h, 30 µM is reported for this molecule? CCCCCCCCCCCCCOC1=C(OCC(O)CO)[C@@H]([C@@H](O)CO)OC1=O (stereo partly shown)
OUT: 63.7

IN: Please give the result for CCCCCCCCCCCCOC1=C(OCC(O)CO)[C@@H]([C@@H](O)CO)OC1=O (stereo partly shown) too.
OUT: 73.3

IN: Please give the result for Oc1ccc(O)cc1 [Hydroquinone, reference compound] too.
OUT: 64.3

IN: Please give the result for CCCCCCCCOC1=C(OCC(O)CO)[C@@H]([C@@H](O)CO)OC1=O (stereo partly shown) [compound 8, 3-O-(2,3-dihydroxypropyl)-2-O-octyl-AsA] too.
OUT: 92.5
